Molecular target: P2X7 (Homo sapiens (Human), UniProt Q99572)
Sequence (Q99572 whole entry): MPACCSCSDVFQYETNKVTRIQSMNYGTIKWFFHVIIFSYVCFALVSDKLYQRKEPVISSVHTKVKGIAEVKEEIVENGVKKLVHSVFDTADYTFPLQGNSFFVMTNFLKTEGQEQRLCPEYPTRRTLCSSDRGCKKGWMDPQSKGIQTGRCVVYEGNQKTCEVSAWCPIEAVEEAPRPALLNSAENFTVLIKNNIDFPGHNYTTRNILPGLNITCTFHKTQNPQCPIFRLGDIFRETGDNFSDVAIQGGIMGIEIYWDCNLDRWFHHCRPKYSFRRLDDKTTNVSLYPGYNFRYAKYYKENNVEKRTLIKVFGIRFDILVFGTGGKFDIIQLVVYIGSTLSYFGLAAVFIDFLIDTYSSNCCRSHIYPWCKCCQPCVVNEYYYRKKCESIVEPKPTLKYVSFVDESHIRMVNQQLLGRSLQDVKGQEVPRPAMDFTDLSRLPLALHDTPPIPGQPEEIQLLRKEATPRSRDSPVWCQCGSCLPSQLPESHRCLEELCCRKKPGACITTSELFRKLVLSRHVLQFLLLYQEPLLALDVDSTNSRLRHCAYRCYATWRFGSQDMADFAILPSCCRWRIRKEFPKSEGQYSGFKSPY
Assay: P2X7 antagonism in human PBMCs (IL-1β release, ELISA)
Assay type: cell-based
Conditions: test compound 10 μM, IL-1β release in human PBMCs, LPS 30 ng/ml + Bz-ATP 0.5 mM, read-out: PBMC 10 μM (% control)
Measured remaining activity at 10 µM of individual entries
Give just the number in %; leave the unit off.

Query: I have this compound here, `Cc1nc2c(c(-c3ccc(F)cc3)n1)CCN(C(=O)c1cccc(Cl)c1Cl)C2` , and I need its recorded remaining activity at 10 µM.
Result: 12.4

Query: What do you get for `Cc1nc2c(c(-c3ccn[nH]3)n1)CCN(C(=O)c1cccc(C(F)(F)F)c1C)C2` ?
Result: 9.3

Query: // same read-out, input: `O=C(c1cc(F)c(F)cc1Cl)N1CCc2c(ncnc2-c2cnccn2)C1`
Result: 20.4

Query: Repeat with `CN(C)c1nc2c(c(-c3ccn[nH]3)n1)CCN(C(=O)c1cccc(C(F)(F)F)c1Cl)C2`
Result: 5

Query: Would you mind doing `Cc1nc2c(c(-c3ccn[nH]3)n1)CCN(C(=O)c1cccc(C(F)(F)F)c1F)C2` as well?
Result: 17.3

Query: Same read-out for Cc1nc2c(c(-c3ccn[nH]3)n1)CC(C)N(C(=O)c1ccc(Cl)cc1Cl)C2 (stereo not shown) ?
Result: 2.7

Next:
Query: Any idea what its remaining activity at 10 µM is? The compound is Cc1nc2c(c(-c3ccn[nH]3)n1)CC(C)N(C(=O)c1cccc(C#N)c1C)C2 (stereo not shown)
Result: -1.2
